Reported t1/2 Brain (terminal half-life) values follow for various compounds
- test_description: Pharmacokinetic studies in plasma and brain of mice after i.p. injection
- Format: in vivo, mouse
- experimental_conditions: female mice, i.p. 5 mg/kg
A number alone suffices; assume min.

compound="N[C@@]1(c2ccccc2Cl)CC[C@@H](O)CC1=O [(2R,5R)-HNK]" value_observed=28
compound="N[C@@]1(c2ccccc2Cl)CCC[C@H](O)C1=O [(2R,6S)-HNK]" value_observed=23
compound="N[C@]1(c2ccccc2Cl)CC[C@H](O)CC1=O [(2S,5S)-HNK]" value_observed=17
compound="N[C@]1(c2ccccc2Cl)CCC[C@@H](O)C1=O [(2S,6R)-HNK]" value_observed=45

Prompt: So what does the record say about t1/2 Brain (terminal half-life) for N[C@@]1(c2ccccc2Cl)CC[C@H](O)CC1=O [(2R,5S)-HNK] ?
Response: 27

* * *

- test_description: Pharmacokinetic studies in plasma and brain of mice after i.p. injection
- Type: in vivo, mouse
- experimental_conditions: male CD-1 mice, i.p. 5 mg/kg, normalized to free base dose
Let's look at some compounds and their measured Cmax (mean ± SEM) Brain.
# output: numeric value plus its unit

compound="N[C@]1(c2ccccc2Cl)CCC[C@H](O)C1=O [(2S,6S)-HNK, (2S,6S)-hydroxynorketamine]" property="Cmax (mean ± SEM) Brain" value_observed="712 ± 47.3 ng/g•mg/kg"
compound=N[C@]1(c2ccccc2Cl)CC[C@@H](O)CC1=O property="Cmax (mean ± SEM) Brain" value_observed="242 ± 9.8 ng/g•mg/kg"
compound=N[C@@]1(c2ccccc2Cl)CC[C@@H](O)CC1=O property="Cmax (mean ± SEM) Brain" value_observed="142 ± 5.6 ng/g•mg/kg"
compound=N[C@]1(c2ccccc2Cl)CCC[C@@H](O)C1=O property="Cmax (mean ± SEM) Brain" value_observed="117 ± 30.6 ng/g•mg/kg"
compound="C[C@@H]1CC[C@@](N)(c2ccccc2Cl)C(=O)[C@@H]1O [(5R)-methyl-(2R,6R)-HNK, (5R)-methyl-(2R,6R)-hydroxynorketamine]" property="Cmax (mean ± SEM) Brain" value_observed="324 ± 13.0 ng/g•mg/kg"

Consider the additional compound presented here.
Prompt: Given N[C@]1(c2ccccc2Cl)C[C@@H](O)CCC1=O , state its recorded Cmax (mean ± SEM) Brain.
Response: 127 ± 9.5 ng/g•mg/kg

* * *

- test_description: Pharmacokinetic studies in plasma and brain of mice after i.p. injection
- Assay type: in vivo, mouse
- experimental_conditions: male mice, i.p. 5 mg/kg
B:P ratio (brain to plasma AUC ratio) values by entry
Number only, no unit.

Example molecules with recorded B:P ratio (brain to plasma AUC ratio):
molecule=N[C@]1(c2ccccc2Cl)C[C@H](O)CCC1=O value_observed=0.9
molecule=N[C@@]1(c2ccccc2Cl)CCC[C@H](O)C1=O value_observed=0.6
molecule=N[C@@]1(c2ccccc2Cl)CC[C@H](O)CC1=O value_observed=0.9

// below: B:P ratio (brain to plasma AUC ratio) requested for another molecule
Prompt: Any idea what its B:P ratio (brain to plasma AUC ratio) is? The molecule is N[C@@]1(c2ccccc2Cl)CCC[C@@H](O)C1=O [(2R,6R)-HNK, (2R,6R)-hydroxynorketamine]
Response: 1.3

* * *

- test_description: Pharmacokinetic studies in plasma and brain of mice after i.p. injection
- Assay type: in vivo, mouse
- experimental_conditions: female CD-1 mice, i.p. 5 mg/kg, normalized to free base dose
property: Cmax (mean ± SEM) Brain (ng/g•mg/kg)
API: value field is a number in ng/g•mg/kg; no unit string.

Here is how some molecules turned out for Cmax (mean ± SEM) Brain.
molecule="N[C@]1(c2ccccc2Cl)CCC[C@H](O)C1=O [(2S,6S)-HNK, (2S,6S)-hydroxynorketamine]" value_observed=993
molecule="N[C@@]1(c2ccccc2Cl)C[C@@H](O)CCC1=O [(2R,4S)-HNK]" value_observed=495
molecule="C[C@@H]1CC[C@@](N)(c2ccccc2Cl)C(=O)[C@@H]1O [(5R)-methyl-(2R,6R)-HNK, (5R)-methyl-(2R,6R)-hydroxynorketamine]" value_observed=352
molecule="N[C@]1(c2ccccc2Cl)CCC[C@@H](O)C1=O [(2S,6R)-HNK]" value_observed=177
molecule="N[C@]1(c2ccccc2Cl)CC[C@H](O)CC1=O [(2S,5S)-HNK]" value_observed=129

Prompt: If you can, please state the reported Cmax (mean ± SEM) Brain value of N[C@]1(c2ccccc2Cl)C[C@@H](O)CCC1=O [(2S,4S)-HNK] .
Response: 234

Prompt: Similarly, N[C@@]1(c2ccccc2Cl)CC[C@@H](O)CC1=O [(2R,5R)-HNK] ?
Response: 152

Prompt: Follow-up entry: N[C@@]1(c2ccccc2Cl)CC[C@H](O)CC1=O [(2R,5S)-HNK]
Response: 154

Prompt: And then N[C@@]1(c2ccccc2Cl)CCC[C@@H](O)C1=O [(2R,6R)-HNK, (2R,6R)-hydroxynorketamine] , what is it?
Response: 530

* * *

- test_description: Pharmacokinetic studies in plasma and brain of mice after i.p. injection
- Format: in vivo, mouse
- experimental_conditions: standard t-test; F female, M male, NS not statistically different
property: Sex-dependent difference: Plasma Total exposure (AUC)

compound="N[C@@]1(c2ccccc2Cl)CCC[C@H](O)C1=O [(2R,6S)-HNK]" value_observed="M > F"
compound="N[C@]1(c2ccccc2Cl)CCC[C@@H](O)C1=O [(2S,6R)-HNK]" value_observed="F > M"
compound="N[C@@]1(c2ccccc2Cl)C[C@@H](O)CCC1=O [(2R,4S)-HNK]" value_observed="M > F"
compound="N[C@]1(c2ccccc2Cl)CC[C@@H](O)CC1=O [(2S,5R)-HNK]" value_observed="M > F"
compound="N[C@]1(c2ccccc2Cl)C[C@@H](O)CCC1=O [(2S,4S)-HNK]" value_observed="F > M"
compound="C[C@@H]1CC[C@@](N)(c2ccccc2Cl)C(=O)[C@@H]1O [(5R)-methyl-(2R,6R)-HNK, (5R)-methyl-(2R,6R)-hydroxynorketamine]" value_observed="M > F"
compound="N[C@]1(c2ccccc2Cl)CCC[C@H](O)C1=O [(2S,6S)-HNK, (2S,6S)-hydroxynorketamine]" value_observed="F > M"

Here is the next item to consider.
Prompt: Any idea what its Sex-dependent difference: Plasma Total exposure (AUC) is? The compound is N[C@@]1(c2ccccc2Cl)CCC[C@@H](O)C1=O [(2R,6R)-HNK, (2R,6R)-hydroxynorketamine]
Response: F > M

* * *

- test_description: Pharmacokinetic studies in plasma and brain of mice after i.p. injection
- Format: in vivo, mouse
- experimental_conditions: male mice, i.p. 5 mg/kg
property: t1/2 Brain (terminal half-life) (min)
Supply the numeric figure in min, leaving out any unit text.

compound=N[C@]1(c2ccccc2Cl)C[C@@H](O)CCC1=O unit_tag=min value_observed=34
compound=N[C@]1(c2ccccc2Cl)CCC[C@@H](O)C1=O unit_tag=min value_observed=45
compound=N[C@]1(c2ccccc2Cl)CC[C@@H](O)CC1=O unit_tag=min value_observed=40

Prompt: Which t1/2 Brain (terminal half-life) reading was recorded for the compound N[C@@]1(c2ccccc2Cl)C[C@@H](O)CCC1=O ?
Response: 32

Prompt: Subsequent entry: N[C@@]1(c2ccccc2Cl)CCC[C@H](O)C1=O
Response: 43

Prompt: Next compound: N[C@]1(c2ccccc2Cl)CC[C@H](O)CC1=O
Response: 16

Prompt: Ok, now N[C@@]1(c2ccccc2Cl)CC[C@H](O)CC1=O
Response: 27

Prompt: Next up: C[C@@H]1CC[C@@](N)(c2ccccc2Cl)C(=O)[C@@H]1O [(5R)-methyl-(2R,6R)-HNK, (5R)-methyl-(2R,6R)-hydroxynorketamine]
Response: 48

* * *

- test_description: Pharmacokinetic studies in plasma and brain of mice after i.p. injection
- Format: in vivo, mouse
- experimental_conditions: standard t-test; F female, M male, NS not statistically different
property: Sex-dependent difference: Plasma Total exposure (AUC)

query_smiles=N[C@@]1(c2ccccc2Cl)C[C@H](O)CCC1=O value_observed="M > F"
query_smiles=N[C@@]1(c2ccccc2Cl)CC[C@@H](O)CC1=O value_observed="M > F"
query_smiles=N[C@@]1(c2ccccc2Cl)CC[C@H](O)CC1=O value_observed="F > M"

* * *

- test_description: Pharmacokinetic studies in plasma and brain of mice after i.p. injection
- Format: in vivo, mouse
- experimental_conditions: female mice, i.p. 5 mg/kg
Here the recorded t1/2 Brain (terminal half-life) is given for each entry.
Answer format: numeric, min implied, no suffix.

Use these answered entries as a reference point.
molecule="N[C@@]1(c2ccccc2Cl)CCC[C@@H](O)C1=O [(2R,6R)-HNK, (2R,6R)-hydroxynorketamine]" property="t1/2 Brain (terminal half-life)" value_observed=34
molecule=N[C@]1(c2ccccc2Cl)C[C@@H](O)CCC1=O property="t1/2 Brain (terminal half-life)" value_observed=35
molecule="C[C@@H]1CC[C@@](N)(c2ccccc2Cl)C(=O)[C@@H]1O [(5R)-methyl-(2R,6R)-HNK, (5R)-methyl-(2R,6R)-hydroxynorketamine]" property="t1/2 Brain (terminal half-life)" value_observed=41
molecule=N[C@]1(c2ccccc2Cl)C[C@H](O)CCC1=O property="t1/2 Brain (terminal half-life)" value_observed=21
molecule=N[C@]1(c2ccccc2Cl)CC[C@@H](O)CC1=O property="t1/2 Brain (terminal half-life)" value_observed=31

Prompt: Need t1/2 Brain (terminal half-life), item N[C@@]1(c2ccccc2Cl)C[C@H](O)CCC1=O
Response: 29

Prompt: Lookup N[C@]1(c2ccccc2Cl)CCC[C@H](O)C1=O [(2S,6S)-HNK, (2S,6S)-hydroxynorketamine]
Response: 44

Prompt: // query: N[C@@]1(c2ccccc2Cl)C[C@@H](O)CCC1=O
Response: 15
